Tested on: CD4 and CD8 T cells from human peripheral blood
test.details: T cell activation in PBMC, flow cytometry with TriMAP/FlowSOM
Format: cell-based
particulars: 10^-7 M, 24 h, anti-CD3 and anti-CD28, compared to ethanol treated cells
Description: Human peripheral blood mononuclear cells (PBMC) from two healthy individuals were obtained from a pre-existing respository. Their use was approved by the University of Alabama at Birmingham Institutional Review Board (Human Subject Assurance Number FWA00005960) as an exempt protocol #4 (Dr C. Raman, P.I.). […] Informed consent is waived in accord with 45CFR46.116 (d). […] The stained cells were analyzed using a CytoFLEX (Beckman Coulter) flow cytometer. […]
quantity.measured: CD4 T cells of population 4 (down modulated CD4, increased CD69 and ICOS)

# molecule, measured
records = [
    ("C=C1CC[C@H](O)C/C1=C/C=C1\\CCC[C@@]2(C)[C@H]1CC[C@@H]2[C@@](C)(O)CCCC(C)(C)O [20S,25(OH)2D3, (20S)-20,25-Dihydroxyvitamin D3]", "fewer cells"),
    ("C=C1CC[C@H](O)C/C1=C/C=C1\\CCC[C@@]2(C)[C@H]1CC[C@@H]2[C@@](C)(O)C[C@@H](O)CC(C)C [20S,23S(OH)2D3, (20S,23S)-20,23-Dihydroxyvitamin D3]", "fewer cells"),
    ("C=C1/C(=C\\C=C2/CCC[C@]3(C)[C@@H]([C@H](C)CCCC(C)(C)O)CC[C@@H]23)C[C@@H](O)C[C@@H]1O [1α,25(OH)2D3, reference compound]", "fewer cells"),
]

From: patent US20240327320A1
